Where do the numbers come from? From patent US20240043386A1.

- STUDY_TARGET: F508del/F508del CFTR (Homo sapiens, UniProt P13569, DEL508-508)
- Construct: cells isolated from CF patients with the homozygous mutation; endogenous in cells; host or cells: primary human bronchial epithelial (hBE) cells from CF patients homozygous for F508del
- Sequence (P13569 with tags, fused parts or gaps DEL508-508): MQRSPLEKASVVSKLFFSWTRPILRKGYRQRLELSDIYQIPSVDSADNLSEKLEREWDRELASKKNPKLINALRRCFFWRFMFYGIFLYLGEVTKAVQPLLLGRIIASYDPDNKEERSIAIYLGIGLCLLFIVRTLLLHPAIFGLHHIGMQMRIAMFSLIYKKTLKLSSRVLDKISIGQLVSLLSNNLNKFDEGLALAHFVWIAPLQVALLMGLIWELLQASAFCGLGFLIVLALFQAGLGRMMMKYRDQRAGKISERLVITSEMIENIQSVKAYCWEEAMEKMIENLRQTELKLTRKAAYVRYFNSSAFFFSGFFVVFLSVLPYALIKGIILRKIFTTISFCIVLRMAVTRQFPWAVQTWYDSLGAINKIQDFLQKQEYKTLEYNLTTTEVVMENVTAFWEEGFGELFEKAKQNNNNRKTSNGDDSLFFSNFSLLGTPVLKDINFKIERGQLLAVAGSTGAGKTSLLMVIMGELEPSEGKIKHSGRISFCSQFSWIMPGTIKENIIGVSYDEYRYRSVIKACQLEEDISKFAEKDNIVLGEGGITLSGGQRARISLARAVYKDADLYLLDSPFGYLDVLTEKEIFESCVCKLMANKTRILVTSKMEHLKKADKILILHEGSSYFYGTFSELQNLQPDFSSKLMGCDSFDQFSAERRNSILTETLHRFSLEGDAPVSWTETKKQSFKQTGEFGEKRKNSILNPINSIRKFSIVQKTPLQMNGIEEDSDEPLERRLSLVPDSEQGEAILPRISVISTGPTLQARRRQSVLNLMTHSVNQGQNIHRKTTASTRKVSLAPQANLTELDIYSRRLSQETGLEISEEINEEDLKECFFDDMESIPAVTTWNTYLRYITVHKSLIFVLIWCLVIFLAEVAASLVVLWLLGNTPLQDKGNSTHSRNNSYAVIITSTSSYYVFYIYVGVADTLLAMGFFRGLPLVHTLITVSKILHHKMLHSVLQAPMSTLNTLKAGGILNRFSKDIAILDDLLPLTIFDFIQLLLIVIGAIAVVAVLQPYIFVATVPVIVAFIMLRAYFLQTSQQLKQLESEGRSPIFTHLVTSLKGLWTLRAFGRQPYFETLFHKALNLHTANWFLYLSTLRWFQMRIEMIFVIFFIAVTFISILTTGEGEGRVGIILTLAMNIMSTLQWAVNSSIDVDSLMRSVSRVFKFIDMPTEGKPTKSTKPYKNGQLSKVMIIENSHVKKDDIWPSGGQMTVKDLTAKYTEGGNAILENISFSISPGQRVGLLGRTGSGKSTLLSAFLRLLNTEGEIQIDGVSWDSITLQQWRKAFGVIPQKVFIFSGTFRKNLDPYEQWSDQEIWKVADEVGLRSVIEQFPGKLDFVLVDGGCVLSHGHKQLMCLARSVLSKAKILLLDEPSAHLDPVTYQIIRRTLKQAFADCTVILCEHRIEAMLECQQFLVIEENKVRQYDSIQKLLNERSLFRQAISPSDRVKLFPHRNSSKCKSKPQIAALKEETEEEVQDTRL
- ASSAY_PROCEDURE: Trans-Epithelial Current Clamp (TECC) assay using primary human bronchial epithelial cells
- Type: cell-based
- CONDITION_LABEL: maximum percent activity relative to positive control (co-corrector 0.15 μM + potentiator 0.45 μM = 100%); primary hBE cells F508del/F508del
Would you mind sorting the entries by Emax (% Dual) according to these classes? Low: < 200 % Dual; Mid: ≥ 200 % Dual and < 300 % Dual; High: ≥ 300 % Dual

>  <COMPOUND>
COc1ccc(C)cc1[C@@]1(C(=O)NS(=O)(=O)c2cccc3nc(C)ccc23)C[C@H]1c1ccccc1F (racemic) [Example 22]

>  <STUDY_TARGET>
F508del/F508del CFTR (Homo sapiens, UniProt P13569, DEL508-508)

>  <LABEL_VALUE>
Mid

$$$$
>  <COMPOUND>
COc1ccc(C)cc1[C@]1(C(=O)NS(=O)(=O)c2cccc3nc(C)ccc23)C[C@@H]1c1cccc(C)n1

>  <STUDY_TARGET>
F508del/F508del CFTR (Homo sapiens, UniProt P13569, DEL508-508)

>  <LABEL_VALUE>
Mid

$$$$
>  <COMPOUND>
COc1ccc(C)cc1[C@]1(C(=O)NS(=O)(=O)c2cccc3nc(C)ccc23)C[C@@H]1c1ccccn1

>  <STUDY_TARGET>
F508del/F508del CFTR (Homo sapiens, UniProt P13569, DEL508-508)

>  <LABEL_VALUE>
Low

$$$$
>  <COMPOUND>
COc1ccc([C@H]2C[C@@]2(C(=O)NS(=O)(=O)c2cccc3nc(C)ccc23)c2cc(C)ccc2OC)c(OC)n1 (single isomer, unassigned)

>  <STUDY_TARGET>
F508del/F508del CFTR (Homo sapiens, UniProt P13569, DEL508-508)

>  <LABEL_VALUE>
Mid

$$$$
>  <COMPOUND>
COc1ccc(C)cc1[C@]1(C(=O)NS(=O)(=O)c2cccc3nc(C)ccc23)C[C@@H]1c1ccc(C(F)(F)F)cc1 (single isomer, unassigned)

>  <STUDY_TARGET>
F508del/F508del CFTR (Homo sapiens, UniProt P13569, DEL508-508)

>  <LABEL_VALUE>
Mid

$$$$
>  <COMPOUND>
COc1ccc(C)cc1[C@]1(C(=O)NS(=O)(=O)c2cccc3nc(C)ccc23)C[C@@H]1c1cnc(C)cn1 (single isomer, unassigned) [Example 92]

>  <STUDY_TARGET>
F508del/F508del CFTR (Homo sapiens, UniProt P13569, DEL508-508)

>  <LABEL_VALUE>
Low

$$$$
>  <COMPOUND>
COc1ccc(C)cc1[C@]1(C(=O)NS(=O)(=O)c2cccc3nc(C)ccc23)C[C@@H]1c1cnc(OC)c(C)n1

>  <STUDY_TARGET>
F508del/F508del CFTR (Homo sapiens, UniProt P13569, DEL508-508)

>  <LABEL_VALUE>
Mid

$$$$
>  <COMPOUND>
COc1ccc(C)cc1[C@@]1(C(=O)NS(=O)(=O)c2cccc3nc(C)ccc23)C[C@H]1c1cccc(C(F)(F)F)c1 (single isomer, unassigned)

>  <STUDY_TARGET>
F508del/F508del CFTR (Homo sapiens, UniProt P13569, DEL508-508)

>  <LABEL_VALUE>
Mid

$$$$
>  <COMPOUND>
COc1ccc(C)cc1[C@@]1(C(=O)NS(=O)(=O)c2cccc3nc(C)ccc23)C[C@H]1c1cncc(F)c1 (racemic) [Example 42]

>  <STUDY_TARGET>
F508del/F508del CFTR (Homo sapiens, UniProt P13569, DEL508-508)

>  <LABEL_VALUE>
Low

$$$$
>  <COMPOUND>
COc1cnc([C@H]2C[C@@]2(C(=O)NS(=O)(=O)c2cccc3nc(C)ccc23)c2cc(C)ccc2OC)cn1 (single isomer, unassigned)

>  <STUDY_TARGET>
F508del/F508del CFTR (Homo sapiens, UniProt P13569, DEL508-508)

>  <LABEL_VALUE>
High

$$$$
>  <COMPOUND>
COc1ccc(C)cc1[C@@]1(C(=O)NS(=O)(=O)c2cccc3nc(C)ccc23)C[C@H]1c1ccc(C(F)(F)F)cc1 (single isomer, unassigned)

>  <STUDY_TARGET>
F508del/F508del CFTR (Homo sapiens, UniProt P13569, DEL508-508)

>  <LABEL_VALUE>
Mid

$$$$
>  <COMPOUND>
COc1ccc([C@@H]2C[C@]2(C(=O)NS(=O)(=O)c2cccc3nc(C)ccc23)c2cc(C)ccc2OC)c(OC)n1 (single isomer, unassigned) [Example 93]

>  <STUDY_TARGET>
F508del/F508del CFTR (Homo sapiens, UniProt P13569, DEL508-508)

>  <LABEL_VALUE>
Mid

$$$$
>  <COMPOUND>
COc1ccc([C@@H]2C[C@]2(C(=O)NS(=O)(=O)c2cccc3nc(C)ccc23)c2cc(C)ccc2OC)cc1 (racemic) [Example 9]

>  <STUDY_TARGET>
F508del/F508del CFTR (Homo sapiens, UniProt P13569, DEL508-508)

>  <LABEL_VALUE>
High

$$$$
